B1: TPR t1 (parent)
chain: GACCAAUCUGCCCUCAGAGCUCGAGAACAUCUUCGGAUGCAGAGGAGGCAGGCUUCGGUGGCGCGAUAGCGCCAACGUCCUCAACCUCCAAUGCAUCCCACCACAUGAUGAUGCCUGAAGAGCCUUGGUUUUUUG

variants of: B1; experiment: polymerase ribozyme fitness, log enrichment relative to wild type (log ratio); higher = more active; in vitro selection for triplet polymerase activity
Exercise: for every item that follows, state its recorded polymerase ribozyme fitness (log ratio).
Answers are plain numbers.

Reference set (3 entries):
G35C A95U: -4.31
G63C G117C A119U: -4.1
C20A: -2.6

Please report polymerase ribozyme fitness (log ratio) for every entry that follows.
1. C15U G61A C82U C85A C86G
2. C28G C73U C97U
3. G10C U112A

a:
1: -2.18; 2: -3.34; 3: 0.23

Could you tell me polymerase ribozyme fitness (log ratio) for each of these variants? They are listed below.
1. A6U C53U
2. A26G G44U C56U G120U U130A
3. G42U A43U G63C U78C
4. C40U C56U A91C C97U C115U

a:
0.192
-2.98
-3
-3.89

# map each variant to its polymerase ribozyme fitness (log ratio)
1. A43G G71C U87G
2. G61U A90U
3. C64U C115A U125A
4. A46G G47A G52U
5. U81G G120U
6. U14G C56G A84U U106C G110U
7. C12A G51U C64U A90G
8. G36U C72G

a:
1: -4.59; 2: -2.11; 3: -0.872; 4: -2.7; 5: -3.76; 6: -5.11; 7: -2.6; 8: -1.68

Field: polymerase ribozyme fitness (log ratio). Fill in for each record below.
1. A41U C49A G52C C72U
2. C12U G128A
3. C22A C31G G71U U92C G93A C114U

a:
1. -3.5
2. -1.59
3. -6.77

Would you be so kind as to report polymerase ribozyme fitness (log ratio) for each listed record?
1. A41G G44A C123U
2. C11U A26U C49G
3. A27U G44U C101G A111C

a:
1: 0.224; 2: -3.4; 3: -7.22

Give polymerase ribozyme fitness (log ratio) for all variants that follow.
1. A50U G60U
2. C4A C13G C49G C88G
3. G44C C72A

a:
1: -1.4; 2: -4.57; 3: -0.169

Batch request: polymerase ribozyme fitness (log ratio) per item, same order as input.
1. G42C C56U U81A C124G U132A
2. C13G G61A C94G U116A
3. G10A G63C
4. G10C C98U
5. A118C
6. C20U G39U C89U A119U U130G
7. G10A C73G

a:
[-0.851, -6.69, -0.414, -1.81, -2.45, -4.97, -0.355]

// each variant listed below needs its polymerase ribozyme fitness (log ratio)
1. A6C C12U A46G A118G
2. C8U U125A U130G
3. U59C C101A
4. G42A U106C
5. C13U A37C U55A

a:
[0.142, -0.351, -1.32, -2.12, -0.3]

src = the RNAGym collection of RNA variant scans (doi:10.1073/pnas.2313332121)
